This section presents molecules with their documented melting point values.
measurement_kind: melting point

• OC1(c2ccccc2)CCN(c2nc(N3CCOCC3)c(F)c(N3CCOCC3)n2)CC1 = 177 to 180 °C
• OC1(c2ccccc2)CCN(c2nc(N3CCOCC3)cc(N3CCOCC3)n2)CC1 = 157 to 159 °C
• Fc1c(N2CCOCC2)nc(N2CCNC(c3ccccc3)C2)nc1N1CCOCC1 (stereo not shown) = 170 to 175 °C
• C1=C(c2ccccc2)CCN(c2nc(N3CCOCC3)cc(N3CCOCC3)n2)C1 = 157 to 160 °C

* * *

Quick list: log10 of EC50 per entry.
System: astrocyte/neuron co-culture
Assay: Brain cell damage induced by hydrogen peroxide treatment (LDH assay)
Format: cell-based
Conditions: Rattus norvegicus, hydrogen peroxide (250 μM), 24 hours, read-out: 50% inhibition concentration against cell damage in entire co-culture system (EC50 value)
measurement_kind: log10 of EC50 (log10 of the value in nM)

* Fc1ccccc1N1CCN(c2nc(N3CCOCC3)c(F)c(N3CCN(c4ccccc4F)CC3)n2)CC1 | 2.90
* Cc1ccc(N2CCN(c3nc(N4CCOCC4)nc(N4CCOCC4)c3F)CC2)cc1 | 2.60
* Fc1c(N2CCOCC2)nc(N2CCc3ccccc3C2)nc1N1CCOCC1 | 2.46
* Nc1c(N2CCOCC2)nc(N2CCN(Cc3ccccc3)CC2)nc1N1CCOCC1 | 4.03
* Nc1c(N2CCOCC2)nc(/C=C/c2ccc(N3CCCCC3)cc2)nc1N1CCOCC1 | 2.86
* COc1ccc(/C=C/c2nc(N3CCOCC3)c(F)c(N3CCOCC3)n2)cc1 | 2.86
